# test-system: TYR from Agaricus bisporus (AbTYR) (Agaricus bisporus, UniProt C7FF04)
# Sequence (C7FF04 1-392 limits assumed): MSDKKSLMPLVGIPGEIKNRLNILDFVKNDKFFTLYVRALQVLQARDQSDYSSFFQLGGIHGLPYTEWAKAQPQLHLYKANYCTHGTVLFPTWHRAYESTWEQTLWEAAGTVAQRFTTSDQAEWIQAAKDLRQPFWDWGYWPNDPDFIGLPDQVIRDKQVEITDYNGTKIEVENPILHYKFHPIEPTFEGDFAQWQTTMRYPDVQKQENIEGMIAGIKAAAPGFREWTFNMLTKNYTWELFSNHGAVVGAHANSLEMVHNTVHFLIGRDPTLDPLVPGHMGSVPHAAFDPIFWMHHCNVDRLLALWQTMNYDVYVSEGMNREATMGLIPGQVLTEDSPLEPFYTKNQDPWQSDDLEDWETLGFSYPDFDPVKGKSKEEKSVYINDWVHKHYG
# test: Inhibition of monophenolase activity of AbTYR (L-Tyr as substrate)
# Type: biochemical
# Design: purchased Sigma Chemical Co. (St. Louis, MO, USA)
# test-parameters: 40 μM (Figure S69)
value-kind: inhibitory effect on monophenolase activity of AbTYR

INSERT INTO assay_data (compound, test_system, observed_result) VALUES
  ('O=C(c1ccc(Cl)cc1Cl)N1CCN(c2ccc(O)cc2)CC1 [compound 10]', 'TYR from Agaricus bisporus (AbTYR) (Agaricus bisporus, UniProt C7FF04)', 'active inhibitors'),
  ('O=C(c1ccccc1Br)N1CCN(c2ccc(O)cc2)CC1 [compound 11]', 'TYR from Agaricus bisporus (AbTYR) (Agaricus bisporus, UniProt C7FF04)', 'active inhibitors'),
  ('O=C(c1ccccc1C(F)(F)F)N1CCN(c2ccc(O)cc2)CC1 [compound 17]', 'TYR from Agaricus bisporus (AbTYR) (Agaricus bisporus, UniProt C7FF04)', 'active inhibitors'),
  ('O=C(c1ccccc1Cl)N1CCN(c2ccc(O)cc2)CC1 [compound 7]', 'TYR from Agaricus bisporus (AbTYR) (Agaricus bisporus, UniProt C7FF04)', 'active inhibitors'),
  ('COc1ccccc1C(=O)N1CCN(c2ccc(O)cc2)CC1 [compound 21]', 'TYR from Agaricus bisporus (AbTYR) (Agaricus bisporus, UniProt C7FF04)', 'active inhibitors');
